- assay-target: TDG (thymine DNA glycosylase) (human, UniProt Q13569 1-410)
- Sequence (Q13569 whole entry): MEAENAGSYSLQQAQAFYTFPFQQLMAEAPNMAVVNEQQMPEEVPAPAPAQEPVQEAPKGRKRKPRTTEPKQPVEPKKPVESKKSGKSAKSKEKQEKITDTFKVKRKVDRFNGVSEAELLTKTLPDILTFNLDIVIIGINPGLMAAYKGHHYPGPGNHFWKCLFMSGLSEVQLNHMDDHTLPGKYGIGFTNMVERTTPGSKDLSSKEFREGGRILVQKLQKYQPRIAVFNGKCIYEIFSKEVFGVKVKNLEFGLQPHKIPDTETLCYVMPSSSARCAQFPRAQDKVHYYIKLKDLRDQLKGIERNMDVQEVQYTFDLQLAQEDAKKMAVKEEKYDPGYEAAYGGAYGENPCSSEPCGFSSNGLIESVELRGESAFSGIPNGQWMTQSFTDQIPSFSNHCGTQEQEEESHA
- test-summary: EMSA; Hill 2.9; EMSA: 5 nM substrate, 100 mM NaCl, 2.5 mM MgCl2, 10 mM Tris-HCl pH 7.5, 5% glycerol, 30 min 30 C, 0.6% agarose 1x TBE 4 C; NMR: 0.1 M NaCl, 0.03 mM TCEP, 15 mM
- details: protein: recombinant; tags: His tag (pET28a, TALON purified); label: 5'-FAM strand 1; 5' overhang 1 nt (strand 1)
readout-type: Kd
State the result as a value with its unit after it.

Sure, the documented Kd for D2-C (dsDNA) DNA 1: TGTGTCACCACTGCTCACGTACAGAGCTG DNA 2: CAGCTCTGTACGTGAGCAGTGGTGACAC is 47 nM

Where do the numbers come from? From paper PMC13022674.
